Reference for the values: PubChem BioAssay AID2060501

# Test system: 282377-053-R-J1-PDC complex spheroids, viability;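 further: spheroids exposed to compounds for 7 days before readout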
# assay info: Anticancer human tumor 282377-053-R-J1-PDC patient-derived colon adenocarcinoma cell line growth inhibition [GQUAD]; active means viability on the fitted dose curve at most 10% of control; inactive means the rest
# condition summary: second compound 1 µM; first compound 10 µM
Possible outcomes: TRUE for active, FALSE for inactive

molecule="C=CCn1c(=O)c2cnc(Nc3ccc(N4CCN(C)CC4)cc3)nc2n1-c1cccc(C(C)(C)O)n1 + CN(C)c1ccc(Nc2c3ccc(NC(=O)CCN4CCCC4)cc3nc3cc(NC(=O)CCN4CCCC4)ccc23)cc1" assay_system="282377-053-R-J1-PDC complex spheroids, viability" qualitative_label=FALSE
molecule="CC(=O)O[C@H]1C(=O)[C@@]2(C)[C@H]([C@H](OC(=O)c3ccccc3)[C@]3(O)C[C@H](OC(=O)[C@H](O)[C@@H](NC(=O)c4ccccc4)c4ccccc4)C(C)=C1C3(C)C)[C@]1(OC(C)=O)CO[C@@H]1C[C@@H]2O + CN(C)c1ccc(Nc2c3ccc(NC(=O)CCN4CCCC4)cc3nc3cc(NC(=O)CCN4CCCC4)ccc23)cc1" assay_system="282377-053-R-J1-PDC complex spheroids, viability" qualitative_label=FALSE
molecule="O=c1[nH]cc(F)c(=O)[nH]1 + Cc1cnc(CNC(=O)c2c(=O)c3ccc(N4CCCN(C)CC4)nc3n3c2sc2ccccc23)cn1" assay_system="282377-053-R-J1-PDC complex spheroids, viability" qualitative_label=FALSE
molecule="CCCS(=O)(=O)Nc1ccc(F)c(C(=O)c2c[nH]c3ncc(-c4ccc(Cl)cc4)cc23)c1F + CN(C)c1ccc(Nc2c3ccc(NC(=O)CCN4CCCC4)cc3nc3cc(NC(=O)CCN4CCCC4)ccc23)cc1" assay_system="282377-053-R-J1-PDC complex spheroids, viability" qualitative_label=FALSE
molecule="C=CC(=O)N1CCN(c2nc(=O)n(-c3c(C)ccnc3C(C)C)c3nc(-c4c(O)cccc4F)c(F)cc23)C(C)C1 (stereo unspecified) + Cc1cnc(CNC(=O)c2c(=O)c3ccc(N4CCCN(C)CC4)nc3n3c2sc2ccccc23)cn1" assay_system="282377-053-R-J1-PDC complex spheroids, viability" qualitative_label=FALSE
molecule="CCCS(=O)(=O)Nc1ccc(F)c(C(=O)c2c[nH]c3ncc(-c4ccc(Cl)cc4)cc23)c1F + Cc1[nH]c2ccc(F)cc2c1-c1nc2c3cccnc3c3ncccc3c2[nH]1" assay_system="282377-053-R-J1-PDC complex spheroids, viability" qualitative_label=FALSE
molecule="CC1COCCN1c1cc(-c2ccnn2C)c2ccnc(-c3ccn[nH]3)c2n1 (stereo unspecified) + CN(C)c1ccc(Nc2c3ccc(NC(=O)CCN4CCCC4)cc3nc3cc(NC(=O)CCN4CCCC4)ccc23)cc1" assay_system="282377-053-R-J1-PDC complex spheroids, viability" qualitative_label=FALSE
molecule="CC(=O)O[C@H]1C(=O)[C@@]2(C)[C@H]([C@H](OC(=O)c3ccccc3)[C@]3(O)C[C@H](OC(=O)[C@H](O)[C@@H](NC(=O)c4ccccc4)c4ccccc4)C(C)=C1C3(C)C)[C@]1(OC(C)=O)CO[C@@H]1C[C@@H]2O + Cc1[nH]c2ccc(F)cc2c1-c1nc2c3cccnc3c3ncccc3c2[nH]1" assay_system="282377-053-R-J1-PDC complex spheroids, viability" qualitative_label=TRUE
molecule="C=CCn1c(=O)c2cnc(Nc3ccc(N4CCN(C)CC4)cc3)nc2n1-c1cccc(C(C)(C)O)n1 + Cc1[nH]c2ccc(F)cc2c1-c1nc2c3cccnc3c3ncccc3c2[nH]1" assay_system="282377-053-R-J1-PDC complex spheroids, viability" qualitative_label=FALSE
molecule="COc1ccc([C@@H](O)c2cc(-c3ncnc4cc(N5CCOCC5)ccc34)c(F)cc2Cl)nn1 + CN(C)c1ccc(Nc2c3ccc(NC(=O)CCN4CCCC4)cc3nc3cc(NC(=O)CCN4CCCC4)ccc23)cc1" assay_system="282377-053-R-J1-PDC complex spheroids, viability" qualitative_label=FALSE
molecule="COc1cccc2c1C(=O)c1c(O)c3c(c(O)c1C2=O)CC(O)(C(=O)CO)CC3OC1CC(N)C(O)C(C)O1 (stereo unspecified) + Cc1[nH]c2ccc(F)cc2c1-c1nc2c3cccnc3c3ncccc3c2[nH]1" assay_system="282377-053-R-J1-PDC complex spheroids, viability" qualitative_label=TRUE
